Values were extracted from patent US11447498B2.

- test: PK test experiments in beagle dogs
- Type: in vivo
- condition_info: male, dog, plasma, IV, 0.5 mg/kg
# AUC(0-inf) per record follows
In your response, the unit should come after the numeric value.

>  <chemical_structure>
CC(C)N1Cc2cc(OCCC3CC3)c3c(c2-c2cc(=O)c(C(=O)O)cn21)CCO3

>  <AUC(0-inf)>
12200 ng·h/mL

$$$$

Now let's try a different one.
input: Consider the compound shown here: CC(C)N1Cc2cc(-c3cnn(C(F)F)c3)c3c(c2-c2cc(=O)c(C(=O)O)cn21)CCO3 What is its recorded AUC(0-inf)?
output: 9990 ng·h/mL

----------
- test: PK test experiments in beagle dogs
- Format: in vivo
- condition_info: male, dog, plasma, IV, 0.5 mg/kg
- Procedure: The PK test in vivo of the compound of the present invention in beagle dogs (body weight 10-12 kg, male, age 10-12 months, 3 per group with oral administration, 3 per group with intravenous injection) The beagle dog was […] […] Plasma samples were extracted by liquid-liquid extraction and quantitatively analyzed by multiple reaction ion monitoring (MRM) on a triple quadrupole tandem mass spectrometer. Pharmacokinetic parameters were calculated using a noncompartmental method by WinNonLin 6.3 software.
# clearance per record follows
Output spec: scalar in mL/min/kg, unitless text.

>  <compound>
CC(C)N1Cc2cc(OCCC3CC3)c3c(c2-c2cc(=O)c(C(=O)O)cn21)CCO3 [Example 15]

>  <numeric_value>
0.69

$$$$

input: Consider the compound shown here: CC(C)N1Cc2cc(-c3cnn(C(F)F)c3)c3c(c2-c2cc(=O)c(C(=O)O)cn21)CCO3 [Example 43] What is its recorded clearance?
output: 0.83

----------
- test: PK test experiments in beagle dogs
- Assay type: in vivo
- condition_info: male, dog, plasma, PO, 2.5 mg/kg
# Cmax per record follows
Output spec: scalar in ng/mL, unitless text.

>  <chemical_structure>
CC(C)N1Cc2cc(-c3cnn(C(F)F)c3)c3c(c2-c2cc(=O)c(C(=O)O)cn21)CCO3

>  <Cmax (ng/mL)>
5770

$$$$

input: Consider the compound shown here: CC(C)N1Cc2cc(OCCC3CC3)c3c(c2-c2cc(=O)c(C(=O)O)cn21)CCO3 What is its recorded Cmax?
output: 7090

----------
- test: PK test experiments in SD rats
- Type: in vivo
- condition_info: male, rat, plasma, PO, 5 mg/kg
- Protocol: The PK test in vivo of the compound of the present invention in SD rats (body weight 200-250 g, male, age 2-3 months, 3 per group with oral administration, 3 per group with intravenous injection) The SD rat was administered orally with 2.5 mg/kg or 5 mg/kg of the compound tested or intravenously injected with 0.5 mg/kg or 1 mg/kg of the compound tested. […] Pharmacokinetic parameters were calculated using a noncompartmental method by WinNonLin 6.3 software.
# Cmax per record follows
Output spec: scalar in ng/mL, unitless text.

The examples below pair each entry with its known result.
>  <compound>
CC(C)N1Cc2cc(OCCC3CC3)c3c(c2-c2cc(=O)c(C(=O)O)cn21)CCO3

>  <quantity_unit>
ng/mL

>  <numeric_value>
2170

$$$$
>  <compound>
COCCCOc1cc2c(c3c1OCC3)-c1cc(=O)c(C(=O)O)cn1C(C(C)C)C2 (stereo not drawn)

>  <quantity_unit>
ng/mL

>  <numeric_value>
1860

$$$$
>  <compound>
CC(C)N1Cc2cc(-c3cnn(C(C)C)c3)c3c(c2-c2cc(=O)c(C(=O)O)cn21)CCO3

>  <quantity_unit>
ng/mL

>  <numeric_value>
1620

$$$$
>  <compound>
CC(C)C1Cc2cc(OCCC3CC3)c3c(c2-c2cc(=O)c(C(=O)O)cn21)CCO3 (stereo not drawn)

>  <quantity_unit>
ng/mL

>  <numeric_value>
1810

$$$$
>  <compound>
CC(C)C1Cc2cc(-c3cnn(C(C)C)c3)c3c(c2-c2cc(=O)c(C(=O)O)cn21)CCO3 (stereo not drawn)

>  <quantity_unit>
ng/mL

>  <numeric_value>
1630

$$$$

input: Consider the compound shown here: CC1(C)CCC2c3cc(OCCC4CC4)c4c(c3-c3cc(=O)c(C(=O)O)cn3N21)CCO4 (stereo not drawn) What is its recorded Cmax?
output: 1700
